experimentalReadout: melting point

Return value of melting point for input COc1ccc(NC(=O)CSc2nc3ccccc3cc2-c2nc3ccccc3[nH]2)cc1 [Compound 9l] , no commentary.
191 to 193 °C

Return value of melting point for input O=C(CSc1nc2ccccc2cc1-c1nc2ccccc2[nH]1)Nc1ccccc1F [Compound 9b] , no commentary.
183 to 185 °C

Return value of melting point for input O=C(CSc1nc2ccccc2cc1-c1nc2ccccc2[nH]1)Nc1ccc(Br)cc1 [Compound 9g] , no commentary.
185 to 187 °C

Return value of melting point for input O=C(CSc1nc2ccccc2cc1-c1nc2ccccc2[nH]1)Nc1cccc(Cl)c1 [Compound 9d] , no commentary.
190 to 192 °C

Return value of melting point for input Cc1ccc(NC(=O)CSc2nc3ccccc3cc2-c2nc3ccccc3[nH]2)cc1 [Compound 9k] , no commentary.
181 to 183 °C

Return value of melting point for input O=C(CSc1nc2ccccc2cc1-c1nc2ccccc2[nH]1)NCc1ccc(F)cc1 [Compound 9r] , no commentary.
186 to 188 °C

Return value of melting point for input O=C(CSc1nc2ccccc2cc1-c1nc2ccccc2[nH]1)Nc1ccc([N+](=O)[O-])cc1 [Compound 9i] , no commentary.
180 to 182 °C

Return value of melting point for input O=C(CSc1nc2ccccc2cc1-c1nc2ccccc2[nH]1)NCc1ccccc1 [Compound 9q] , no commentary.
183 to 185 °C

====

experimentalReadout: melting point

Return value of melting point for input O=C(CSc1nc2ccccc2cc1-c1nc2ccccc2[nH]1)Nc1ccc(Cl)cc1 , no commentary.
185 to 187 °C

Return value of melting point for input CCc1ccc(NC(=O)CSc2nc3ccccc3cc2-c2nc3ccccc3[nH]2)cc1 , no commentary.
178 to 180 °C

Return value of melting point for input Cc1cccc(NC(=O)CSc2nc3ccccc3cc2-c2nc3ccccc3[nH]2)c1C , no commentary.
185 to 187 °C

Return value of melting point for input O=C(CSc1nc2ccccc2cc1-c1nc2ccccc2[nH]1)Nc1c(Cl)cccc1Cl , no commentary.
188 to 190 °C

Return value of melting point for input Cc1cccc(C)c1NC(=O)CSc1nc2ccccc2cc1-c1nc2ccccc2[nH]1 , no commentary.
185 to 187 °C

Return value of melting point for input O=C(CSc1nc2ccccc2cc1-c1nc2ccccc2[nH]1)Nc1ccccc1Br , no commentary.
181 to 183 °C
